# target or test system: UniProt P28074
# test summary: Caliper-based proteasome enzymatic activity assay, β5c
# Type: biochemical
# condition summary: human recombinant constitutive proteasome 0.3 nM, FAM-labeled peptide substrate 1 μM, rt 3 h; read-out: β5c subunit IC50
Items are presented alongside their recorded pIC50.
Remember, pIC50 is on a log scale: it is -log10 of the molar concentration.

Consider the following illustrative entries.
CC(C)(C=C(C#N)C(=O)N1C2CCC1(COC(=O)N[C@@H](CCc1ccccc1)B(O)O)CC2)N1CCC(F)(F)C1 [Example 77]: 5.48
COC(=O)N1CCN(C(C)(C)C=C(C#N)C(=O)N2CC[C@H](COC(=O)N[C@@H](Cc3ccccc3)B(O)O)C2)CC1 [Example 96]: 5.79

Entry under test: CC(C)C=C(C#N)C(=O)NCCCC[C@H](NC(=O)c1cnccn1)C(=O)N[C@@H](Cc1ccccc1)B(O)O [Example 5] . Its pIC50 was 7.56

Entry under test: Cc1ccc(C[C@H](NC(=O)OC[C@H]2CCCN(C(=O)C(C#N)=CC(C)(C)N3CCC(F)(F)C3)C2)B(O)O)cc1 [Example 52] . Its pIC50 was 6.15

Entry under test: C=CC(=O)N1CC[C@H]1COC(=O)N[C@@H](Cc1ccccc1)B(O)O [Example 51] . Its pIC50 was 5.84

Entry under test: CC(C)(C=C(C#N)C(=O)N1CCC[C@@H](OC(=O)N[C@@H](Cc2ccccc2)B(O)O)C1)N1CCC(F)(F)C1 [Example 55] . Its pIC50 was 5.41

Entry under test: COC(=O)N1CCN(C(C)(C)C=C(C#N)C(=O)N2CCC[C@H](OC(=O)N[C@@H](Cc3ccccc3)B(O)O)C2)CC1 [Example 83] . Its pIC50 was 6.03

Entry under test: CC(C)(C=C(C#N)C(=O)N1CC[C@H](OC(=O)N[C@@H](Cc2ccccc2)B(O)O)C1)N1CCC(F)(F)C1 [Example 89] . Its pIC50 was 5.95

Entry under test: CC1(C)CCN(C(C)(C)C=C(C#N)C(=O)N2CCC[C@H](OC(=O)N[C@@H](Cc3ccc(C(F)(F)F)cc3)B(O)O)C2)C1 [Example 69] . Its pIC50 was 5.47

Entry under test: CC(C)C=C(C#N)C(=O)NCCCC[C@H](NC(=O)c1cc(Cl)ccc1Cl)C(=O)N[C@@H](CC(C)C)B(O)O [Example 3] . Its pIC50 was 8.07

Entry under test: CC(C)C=C(C#N)C(=O)NCCCC[C@H](NS(C)(=O)=O)C(=O)N[C@@H](Cc1ccccc1)B(O)O [Example 12] . Its pIC50 was 7.68

----------
# target or test system: constitutive proteasome β5c unit (Homo sapiens, UniProt P28074)
# test summary: Caliper-based proteasome enzymatic activity assay, β5c
# Format: biochemical
# condition summary: human recombinant constitutive proteasome 0.3 nM, FAM-labeled peptide substrate 1 μM, rt 3 h; read-out: β5c subunit IC50
Lab note - cut at 2 µM for IC50: fulfilled if strictly below, not fulfilled if not.

Use the examples below as a reference point.
C=CC(=O)N1C2CCC1(COC(=O)N[C@@H](CCc1ccccc1)B(O)O)CC2 [Example 71]: not fulfilled
CC(C)(C)C=C(C#N)C(=O)N1CCCC[C@H]1CNC(=O)N[C@@H](Cc1ccccc1)B(O)O [Example 40]: not fulfilled
C[C@H]1CN(C(C)(C)C=C(C#N)C(=O)N2C3CCC2(COC(=O)N[C@@H](Cc2ccccc2)B(O)O)CC3)C[C@H](C)O1 [Example 123]: fulfilled
CC(C)(C=C(C#N)C(=O)N1CCC[C@H](OC(=O)N[C@@H](CC2=CCCC2)B(O)O)C1)N1CCOCC1 [Example 121]: not fulfilled
C=CC(=O)N1C2CCC1(COC(=O)N[C@@H](Cc1coc3ccccc13)B(O)O)CC2 [Example 63]: fulfilled

Query: Does the reported IC50 of CC(C)(C=C(C#N)C(=O)N1CC[C@H](NC(=O)N[C@@H](Cc2ccccc2)B(O)O)C1)N1CCC(F)(F)C1 [Example 100] stay below 2 µM?
Response: not fulfilled

Query: Does the reported IC50 of COC(=O)N1CCN(C(C)(C)C=C(C#N)C(=O)N2CCCC[C@H](OC(=O)N[C@@H](Cc3ccccc3)B(O)O)C2)CC1 [Example 108] stay below 2 µM?
Response: not fulfilled

Query: Does the reported IC50 of CC(C)(C)C=C(C#N)C(=O)N1CCC[C@@H]1CNC(=O)N[C@@H](Cc1coc2ccccc12)B(O)O [Example 45] stay below 2 µM?
Response: not fulfilled

Query: Does the reported IC50 of CCc1cccc(C[C@H](NC(=O)[C@H](COC[C@H]2CCCN2C(=O)C(C#N)=CC(C)C)NCC(F)(F)F)B(O)O)c1 [Example 30] stay below 2 µM?
Response: fulfilled

Query: Does the reported IC50 of CC(C)(C=C(C#N)C(=O)N1CCC[C@@H](NC(=O)N[C@@H](Cc2ccccc2)B(O)O)C1)N1CCC(F)(F)C1 [Example 101] stay below 2 µM?
Response: not fulfilled

----------
Items are presented alongside their recorded pIC50.
# target or test system: immunoproteasome LMP7/B5i subunit (Homo sapiens)
# test summary: Caliper-based proteasome enzymatic activity assay, LMP7
# Format: biochemical
# condition summary: human recombinant immunoproteasome 0.3 nM, FAM-labeled peptide substrate 1 μM, rt 3 h; read-out: LMP7 subunit IC50
Remember, pIC50 is on a log scale: it is -log10 of the molar concentration.

Consider the following illustrative entries.
C=CC(=O)N1C2CCC1(COC(=O)N[C@@H](Cc1ccc(F)cc1)B(O)O)CC2: 7.68
C=CC(=O)N1CCC[C@@H]1CNC(=O)N[C@@H](Cc1ccccc1)B(O)O: 5.94
C=CC(=O)N1CCC[C@H](OC(=O)N[C@@H](Cc2ccc(C(F)(F)F)cc2)B(O)O)C1: 6.83

Entry under test: `CC(C)C=C(C#N)C(=O)N(C)c1cccc(C[C@H](NCC(F)(F)F)C(=O)N[C@@H](CC(C)C)B(O)O)c1` . Its pIC50 was 7.14

Entry under test: CC(C)(C=C(C#N)C(=O)N1CCC[C@@](C)(OC(=O)N[C@@H](Cc2ccccc2)B(O)O)C1)N1CCC(F)(F)C1 (single isomer, unassigned) . Its pIC50 was 6.19

Entry under test: `CC(C)C=C(C#N)C(=O)NCCCC[C@H](NC(=O)c1cc(Cl)ccc1Cl)C(=O)N[C@@H](Cc1ccccc1)B(O)O` . Its pIC50 was 8.62

Entry under test: `CC(C)(C=C(C#N)C(=O)N1CCC[C@H](COC(=O)N[C@@H](Cc2ccccc2)B(O)O)C1)N1CCC(F)(F)C1` . Its pIC50 was 8.36

Entry under test: `CC1(C)CCN(C(C)(C)C=C(C#N)C(=O)N2CCC[C@H](OC(=O)N[C@@H](Cc3ccc(F)cc3)B(O)O)C2)C1` . Its pIC50 was 8.27

Entry under test: `C=CC(=O)N1C2CCC1(COC(=O)N[C@@H](Cc1coc3ccccc13)B(O)O)CC2` . Its pIC50 was 8.70

Entry under test: `C=CC(=O)N1C[C@@H](F)[C@H](OC(=O)N[C@@H](Cc2ccc(F)cc2)B(O)O)C1` . Its pIC50 was 7.74

Entry under test: `CC(C)(C=C(C#N)C(=O)N1C2CCC1(COC(=O)N[C@@H](Cc1ccccc1)B(O)O)CC2)N1CCOC2(CC2)C1` . Its pIC50 was 8.89

Entry under test: `C[C@@H]1CN(C(C)(C)C=C(C#N)C(=O)N2C3CCC2(COC(=O)N[C@@H](Cc2ccccc2)B(O)O)CC3)C[C@H](C)O1` . Its pIC50 was 8.68

Entry under test: `Cc1ccc(C[C@H](NC(=O)NC[C@@H]2CCCN2C(=O)C(C#N)=CC(C)(C)C)B(O)O)cc1` . Its pIC50 was 7.89

----------
Items are presented alongside their recorded IC50.
# target or test system: immunoproteasome LPM2/β1i subunit (Homo sapiens)
# test summary: Caliper-based proteasome enzymatic activity assay, LMP2
# condition summary: human recombinant immunoproteasome 0.3 nM, FAM-labeled peptide substrate 1 μM, rt 2 h

Consider the following illustrative entries.
Cc1ccc(C[C@H](NC(=O)NC[C@H]2CCCN2C(=O)C(C#N)=CC(C)(C)C)B(O)O)cc1: > 5 µM
CC(C)C=C(C#N)C(=O)N1CCC[C@@H]1COC[C@H](NC(=O)c1cc(Cl)ccc1Cl)C(=O)N[C@@H](Cc1ccccc1)B(O)O: 0.138 µM
C=CC(=O)N1CCC[C@@H]1CNC(=O)N[C@@H](Cc1ccccc1)B(O)O: > 5 µM
CC(C)(C=C(C#N)C(=O)N1CCC[C@@H]1CNC(=O)N[C@@H](Cc1coc2ccccc12)B(O)O)N1CCOCC1: > 5 µM
CC(C)(C=C(C#N)C(=O)N1CCC[C@H](OC(=O)N[C@@H](Cc2ccc(F)cc2)B(O)O)C1)N1CCC(F)(F)C1: > 5 µM

Shifting focus to the molecule that follows.
Entry under test: `CC(C)(C=C(C#N)C(=O)N1C2CCC1(COC(=O)N[C@@H](Cc1ccccc1)B(O)O)CC2)N1CCC(F)(F)C1` . Its IC50 was 3.19 µM
